B1: PTPRD (parent)
chain: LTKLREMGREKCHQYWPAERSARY

# Variants of: B1
# METHOD SUMMARY: protein stability index of a GFP-peptide fusion (GPS, HEK-293T) (PSI 1-6); higher = more stable;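 also: lentivirally expressed fusions sorted by FACS into six bins by GFP to DsRed ratio, PSI derived from sequencing read proportions per bin multiplied by bin number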
# REPORTED CONDITIONS: c terminus: a fixed tail appended
READOUT LABEL: protein stability index
// return just the number, without any unit appended

VARIANT KEY	protein stability index
R20V	2.03
C12V	2.35
L1A	2.88
E10M	1.83
M7D	3.14

Query: Give the value of protein stability index reported for the following: `R20T`
Response: 2.66

Query: Specify protein stability index for `R20Y` and stop.
Response: 2.33

Query: Read the entry `H13Q` and write its reported protein stability index.
Response: 2.83

Query: Supply reported protein stability index belonging to this variant: `E10P`
Response: 2.71

Origin of values: the supplement of paper PMC10567573
